target: human FAAH (Homo sapiens); construct: host or cells: COS-7 cells, transient transfection; 13,000 g membrane fraction solubilised in 1% Triton X-100; assay: Human FAAH biochemical inhibition assay (AMC arachidonoyl amide fluorescence); details: Table 1, human FAAH (no asterisk); read-out: Activity (Ki)
Sequence (O00519 whole entry): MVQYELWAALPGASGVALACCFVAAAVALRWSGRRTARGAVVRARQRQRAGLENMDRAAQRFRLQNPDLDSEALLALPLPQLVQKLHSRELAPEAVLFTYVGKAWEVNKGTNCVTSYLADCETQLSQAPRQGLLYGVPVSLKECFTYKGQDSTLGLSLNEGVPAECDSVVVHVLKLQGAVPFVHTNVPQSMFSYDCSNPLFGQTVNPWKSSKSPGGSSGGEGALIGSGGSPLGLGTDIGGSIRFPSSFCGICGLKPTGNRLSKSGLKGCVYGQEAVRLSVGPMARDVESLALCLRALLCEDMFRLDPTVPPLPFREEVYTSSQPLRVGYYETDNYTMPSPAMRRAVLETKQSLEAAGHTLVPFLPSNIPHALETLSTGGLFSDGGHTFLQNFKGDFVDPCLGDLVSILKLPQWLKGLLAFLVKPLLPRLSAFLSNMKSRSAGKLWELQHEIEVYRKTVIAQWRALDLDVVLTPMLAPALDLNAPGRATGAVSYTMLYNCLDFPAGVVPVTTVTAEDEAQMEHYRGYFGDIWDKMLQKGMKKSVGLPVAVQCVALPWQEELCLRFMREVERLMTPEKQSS
Below is a list of entries, each paired with its recorded Ki value.

*Q* Name the recorded Ki of `CCCCOc1ccc(B(O)O)cc1F` , assay system human FAAH (Homo sapiens).
*A* < 10 nM

*Q* Name the recorded Ki of `CC(C)(C)OC(=O)n1c(B(O)O)cc2cc(OCc3ccccc3)ccc21` , assay system human FAAH (Homo sapiens).
*A* > 1000 nM

*Q* Name the recorded Ki of `Cc1ccccc1B(O)O` , assay system human FAAH (Homo sapiens).
*A* > 1000 nM

*Q* Name the recorded Ki of `OB(O)c1cccc(OCc2ccccc2Cl)c1` , assay system human FAAH (Homo sapiens).
*A* 10 to 100 nM

*Q* Name the recorded Ki of `OB(O)c1ccc2[nH]ccc2c1` , assay system human FAAH (Homo sapiens).
*A* > 1000 nM

*Q* Name the recorded Ki of `COc1ccccc1B(O)O` , assay system human FAAH (Homo sapiens).
*A* > 1000 nM

Hey, just so you know, these numbers are from patent US8329675B2.
